Reference source for all entries: PubChem BioAssay AID588774

The compounds listed here are annotated with their inhibition.
- assayed-system: ABHD4 (UniProt Q8VD66)
- Sequence (Q8VD66 whole entry, looked up): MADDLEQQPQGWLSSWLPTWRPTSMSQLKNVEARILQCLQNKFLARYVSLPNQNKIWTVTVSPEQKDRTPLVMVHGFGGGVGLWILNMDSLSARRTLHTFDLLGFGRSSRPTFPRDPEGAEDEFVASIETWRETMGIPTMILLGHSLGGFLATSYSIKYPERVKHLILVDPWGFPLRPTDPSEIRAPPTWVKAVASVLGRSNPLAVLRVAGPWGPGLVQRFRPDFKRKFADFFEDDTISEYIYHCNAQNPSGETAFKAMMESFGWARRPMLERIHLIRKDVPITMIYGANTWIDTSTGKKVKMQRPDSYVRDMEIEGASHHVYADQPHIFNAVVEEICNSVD
- procedure-summary: competitive ABPP of pPAFAH versus proteome hydrolases – biochemical, gel-based, FP-Rh fluorescence, complex proteome, SAR compounds, selectivity assay for pPAFAH inhibitor project, SAR follow-up (AID 588774);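 note: 0% = DMSO-only band intensity and 100% = blank gel background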
- conditions: at 10 µM, stronger effect = higher value
Answer in %, number only, no unit symbol.

Reference set, count: 8
INSERT INTO assay_data (compound, measured_endpoint, value_measured) VALUES
  ('Cc1cc(N2CCN(C(=O)Oc3noc4cc(Cl)ccc34)CC2)c2ccccc2n1', 'inhibition', 0),
  ('Cc1cc(N2CCN(C(=O)Oc3ccc(-c4ccc(Br)cc4)cc3)CC2)c2ccccc2n1', 'inhibition', 0),
  ('Cc1cc(N2CCN(C(=O)n3ncc(-c4ccc([N+](=O)[O-])cc4)n3)CC2)c2ccccc2n1', 'inhibition', 100),
  ('Cc1cc(N2CCN(C(=O)Oc3ccc(-n4cccc4)cc3)CC2)c2ccccc2n1', 'inhibition', 0),
  ('Cc1cc(N2CCN(C(=O)Oc3ccc(C4CCCCC4)cc3)CC2)c2ccccc2n1', 'inhibition', 0),
  ('Cc1cc(N2CCN(C(=O)n3oc4cc(Cl)ccc4c3=O)CC2)c2ccccc2n1', 'inhibition', 48),
  ('Cc1cc(N2CCN(C(=O)Oc3ccc(C4CCCC4)cc3)CC2)c2ccccc2n1', 'inhibition', 27),
  ('O=C(N1CCOCC1)n1oc2cc(Cl)ccc2c1=O', 'inhibition', 0);

Prompt: For the compound O=C(Oc1noc2cc(Cl)ccc12)N1CCCCC1 , give its measured inhibition value.
Response: 0

Prompt: Look up and report measured inhibition for this entry: Cc1cc(N2CCN(C(=O)Oc3ccc(C(F)(F)F)cc3)CC2)c2ccccc2n1
Response: 72

Prompt: Provide only the value of recorded inhibition for Cc1cc(N2CCN(C(=O)n3ncc(-c4ccc(OC(F)(F)F)cc4)n3)CC2)c2ccccc2n1
Response: 100

Prompt: Give the measured inhibition for Cc1cc(N2CCN(C(=O)Oc3ccc(-c4ccccc4)cc3)CC2)c2ccccc2n1
Response: 0

Prompt: Given the compound O=C(Oc1noc2cc(Cl)ccc12)N1CCOCC1 , write its reported inhibition.
Response: 0

Prompt: Give inhibition for the following compound: Cc1cc(N2CCN(C(=O)n3ncc(-c4ccc(Cl)c(Cl)c4)n3)CC2)c2ccccc2n1
Response: 100

Prompt: Give inhibition for COc1ccc(-c2cnn(C(=O)N3CCN(c4cc(C)nc5ccccc45)CC3)n2)cc1
Response: 100

Prompt: Return value of inhibition for input Cc1cc(N2CCN(C(=O)Oc3ccc([N+](=O)[O-])cc3)CC2)c2ccccc2n1 , no commentary.
Response: 0

Prompt: For the compound Cc1cc(N2CCN(C(=O)n3ncc(-c4ccccc4)n3)CC2)c2ccccc2n1 , report inhibition.
Response: 100

----------
- assayed-system: Platelet-activating factor acetylhydrolase (Mus musculus) (UniProt Q60963)
- Sequence (Q60963 whole entry, looked up): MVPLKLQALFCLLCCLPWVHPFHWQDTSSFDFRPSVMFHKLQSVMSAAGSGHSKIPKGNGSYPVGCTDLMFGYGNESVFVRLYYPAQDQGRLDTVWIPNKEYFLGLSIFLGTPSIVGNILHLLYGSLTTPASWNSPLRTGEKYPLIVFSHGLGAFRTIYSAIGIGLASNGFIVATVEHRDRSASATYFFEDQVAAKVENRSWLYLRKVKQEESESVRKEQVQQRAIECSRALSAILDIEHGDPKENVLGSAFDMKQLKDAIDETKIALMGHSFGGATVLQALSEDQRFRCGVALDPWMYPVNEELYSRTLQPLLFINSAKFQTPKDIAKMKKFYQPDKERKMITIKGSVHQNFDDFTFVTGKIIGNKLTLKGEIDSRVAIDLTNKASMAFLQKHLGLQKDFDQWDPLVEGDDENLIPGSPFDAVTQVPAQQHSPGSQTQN
- procedure-summary: competitive ABPP of pPAFAH versus proteome hydrolases – biochemical, gel-based, FP-Rh fluorescence, complex proteome, SAR compounds, selectivity assay for pPAFAH inhibitor project, SAR follow-up (AID 588774);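 note: 0% = DMSO-only band intensity and 100% = blank gel background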
- conditions: pPAFAH, inhibition, at 0.1 µM, stronger effect = higher value
measured-endpoint: inhibition (%)
Expressed in %, but write only the number.

Examples from the recorded data:
INSERT INTO assay_data (compound, units_of_measure, value_measured) VALUES
  ('Cc1cc(N2CCN(C(=O)Oc3ccc(C4CCCC4)cc3)CC2)c2ccccc2n1', '%', 28),
  ('Cc1cc(N2CCN(C(=O)n3oc4cc(Cl)ccc4c3=O)CC2)c2ccccc2n1', '%', 87);

Prompt: Give Platelet-activating factor acetylhydrolase (Mus musculus) (UniProt Q60963) inhibition for the following compound: O=C(N1CCOCC1)n1oc2cc(Cl)ccc2c1=O
Response: 98

Prompt: Report inhibition under test system Platelet-activating factor acetylhydrolase (Mus musculus) (UniProt Q60963) for Cc1cc(N2CCN(C(=O)Oc3noc4cc(Cl)ccc34)CC2)c2ccccc2n1 .
Response: 89

Prompt: Give reported inhibition for Cc1cc(N2CCN(C(=O)Oc3ccc(-c4ccccc4)cc3)CC2)c2ccccc2n1 (Platelet-activating factor acetylhydrolase (Mus musculus) (UniProt Q60963))
Response: 66

Prompt: Give reported inhibition for Cc1cc(N2CCN(C(=O)Oc3ccc(C4CCCCC4)cc3)CC2)c2ccccc2n1 (Platelet-activating factor acetylhydrolase (Mus musculus) (UniProt Q60963))
Response: 2

Prompt: Give reported inhibition for O=C(Oc1noc2cc(Cl)ccc12)N1CCOCC1 (Platelet-activating factor acetylhydrolase (Mus musculus) (UniProt Q60963))
Response: 96

Prompt: Specify inhibition for Cc1cc(N2CCN(C(=O)Oc3ccc(-c4ccc(Br)cc4)cc3)CC2)c2ccccc2n1 , system Platelet-activating factor acetylhydrolase (Mus musculus) (UniProt Q60963).
Response: 2
